Test system: TERT-RPE1
Test summary: Here: values are normalized to the negative (DMSO; defined as 0% autophagy induction) and positive (250nM Torin1; mTOR inhibitor; defined as maximal inducer of autophagy = 100%) control compounds and represented as % of autophagy induction. […] The impact of autophagy induction on cells is complex and depends on the affected target. As such, the magnitude of a phenotype may not be equally mirrored in the %-value of autophagy induction and vice versa. The dynamics of the induction may indicate the mode of activation: e.g. activation via phosphorylation or a signaling cascade may occur fast, while activation via transcription factors may take considerably longer. […] Of note, treatment concentrations may be sub-optimal for specific compounds, leading to false negative annotations.
Format: functional, Homo sapiens
Test parameters: Compound Concentration 0.5 uM, Timepoint 60 hours, Culturing Media DMEM/F12 (1:1), 1 % Penicillin/Streptomycin, 10% Fetal bovin serum Add-On: No, Screening Media Control DMEM/F12 (1:1), Screening Media Samples DMEM/F12 (1:1)
Reported endpoint: autophagy induction

compound=CN(C)S(=O)(=O)c1ccc(NC(=S)N2CCC(C(O)(c3ccccc3)c3ccccc3)CC2)cc1 reported_endpoint="autophagy induction" val=-8.279%
compound=CCCCN(CCCC)C(=O)CN1C[C@@H](c2ccc3c(c2)OCO3)[C@H](C(=O)O)[C@H]1c1ccc(OC)cc1 reported_endpoint="autophagy induction" val=-16.9579%
compound=O=C(O)C1CN(Cc2ccc(-c3nc4cc(Cc5ccccc5F)ccc4s3)c(F)c2)C1 reported_endpoint="autophagy induction" val=-5.859%
compound=Cc1csc(NC(=O)c2cc(F)cc(Oc3cncnc3)c2)n1 reported_endpoint="autophagy induction" val=-20.0235%
compound=N#Cc1c[nH]c2c(C(=O)N3CCN(CCc4ccc(F)cc4)CC3)cccc12 reported_endpoint="autophagy induction" val=-14.8375%
compound=COc1ccccc1CN[C@H]1C2CCN(CC2)[C@H]1C(c1ccccc1)c1ccccc1 reported_endpoint="autophagy induction" val=-21.453%
compound=Cc1cn2cc(CC(=O)N3CCC4(CC3)CN(Cc3ccc(-n5nccn5)cc3Cl)C4)nc2s1 reported_endpoint="autophagy induction" val=-15.5621%
compound=O=C1N/C(=N/c2ccccc2F)S/C1=C\c1ccc(C(=O)O)cc1 reported_endpoint="autophagy induction" val=-17.4269%
compound="CC(C)NCC(O)c1ccc(N)c(C#N)c1 (centres undefined)" reported_endpoint="autophagy induction" val=-22.0747%
